Source of measurements: the nanobody polyreactivity screen of Harvey et al. (2022)

TEST SUMMARY: yeast display, Sf9 membrane polyspecificity reagent, FACS + sequencing; frameworks hold sequencing errors
MEASURED QUANTITY: polyreactivity (PSR sort gate)

Consider the worked cases shown below.
- MACROMOLECULE SEQUENCE: "QVQLVESGGGLVQAGGSLRLSCAASGYIFGRNAMGWYRQAPGKERELVAVSSSRGSRTYYADSVKGRFTISRDNAKNTVYLQMNSLKPEDTAVYYCAVRGVVNFDYWGQGTQVTVSS"
  polyreactivity (PSR sort gate): "high polyreactivity"
- MACROMOLECULE SEQUENCE: "KVQLVETGGGLVQAGGSLRLSCAASGRTFWGYAKGWYRQAPGKEREFVAAISCGGRTNYADSVKGRFTISRDNAKNTVYLQLNSLKPEDSAVYYCATVSGYGYYYWGQGTQVTVSS"
  polyreactivity (PSR sort gate): "low polyreactivity"
- MACROMOLECULE SEQUENCE: "QVQLVESGGGLVQAGGSLRLSCAASGRTFAFYTMGWYRQAPGKEREFVAAISWSGGSTHYADSVKGRFTISRDNAKNTVYLQMNSLKQEDSAVYYCAAGPFYRFTDGRYKTLDYWGQGTQVTVSS"
  polyreactivity (PSR sort gate): "high polyreactivity"
- MACROMOLECULE SEQUENCE: "QVQLVESGGGLVQAGGSLRLSCAASGSIFTTYAMGWYREAPGKERELVAAITDTSSTNYADSVKGRFTISRDNAKKTVFLQMNSLKPEDTAVYYCAVDLGYEYDWGQGTQVTVSS"
  polyreactivity (PSR sort gate): "low polyreactivity"
- MACROMOLECULE SEQUENCE: "QVQLVESGGGIVQAGGSLRLSCAASGFIFVANAMGRYRQAPGKERQLVAAISGSGGSTFYADSVKGRFTISRDNAKNTVNLQMNSLKPEDTAGYYCNADAYDYSGYFEYDCWGQGTQETVSS"
  polyreactivity (PSR sort gate): "high polyreactivity"

*Q* Dear colleague, I am looking for the recorded polyreactivity (PSR sort gate) of the following sequence: "QVQLVESGGGIVQAGVSLRLSCAASGISYSPNVMGWYRQAPGKERELVASISSGGSTYYADSVNGRFTISRDNATNSVYLQMNSLKPEDTAVYYCAAEVDGYWTYYYWGQGTQVTVSS"
*A* low polyreactivity

*Q* Moving on to the next sequence: "QVQLVESGGGLVQAGGSLRLSCAASGRIFGTNAMGWYRQAPGKERELVAAITWNADDTYYADSVKGRFTISRDNAKNTVYLQMNSLKPEDTAVYYCAADSYEGYYYWGQGTQVTVSS"
*A* low polyreactivity

*Q* Moving on to the next sequence: "QVQLVESGGGLVQAGGSLRLSCAASGRTFFGYAMGWYRQAPGKERELVAAISSGGSTYYADSVKGRFTISRDNAKNTVYLQMYSLKPEDTAVYYCATAFYYYTSGTTLLFRYDYWGQGTQVTVSS"
*A* low polyreactivity

*Q* Moving on to the next sequence: "QVQLVESGGGLVQAGGSLRLSCAASGRSFRRYAMGWYRQAPVKDRELVATNTSNGGSTYYADSVKGRFTISRDNAMHTVDFQLNSLKPEDTAVYYCARDLTYYRSRYDYWGQGTQVTVSS"
*A* high polyreactivity

*Q* Moving on to the next sequence: "QVQLVESGGGLVQAGGSLRLSCDASVSIFVANAMGWSRQATGKERELVAAITGRGSRTYYADSVKGRFTISRDNAKNTVYLQMNSLKPEDTAVYYCADRYTNYGGYYWGQGTQVTVSS"
*A* high polyreactivity

*Q* Moving on to the next sequence: "QVQLVESGGGLVQARGSLRLSCASSGSIFNYYDMGWYRQAPGKERELVAAIDTSGGSTYFADSVKGRFTISRDNAKNTVYLQMNRLKPEDTAVYYCAAEWPYYDKIYDYWGQGTQVTVSS"
*A* low polyreactivity

---

TEST SUMMARY: yeast display, Sf9 membrane polyspecificity reagent, FACS + sequencing; frameworks hold sequencing errors
MEASURED QUANTITY: polyreactivity (PSR sort gate)

Consider the worked cases shown below.
- MACROMOLECULE SEQUENCE: "QVQLVESGGGLVQAGGSLRLSCAASGFIFKRYAMGWYRQAPGKERELVAVITRSGGSTYYADSVKGRFTISRDNAKNTVYLQMNSLKPEDTAVYYCAVDFTDRGYDYWGQGTQVTVSS"
  RESULT: "high polyreactivity"
- MACROMOLECULE SEQUENCE: "QVQLVESGGGLVQAGGSLRLSCAASGSIFNKYAMGWYRQAPGKERELVAAISVSGTRTYYADSVKGRFTISRDTAKNTVYLQMNSLKPEDTAVYYCATKFFRTAYEYWGQGTQVTVSS"
  RESULT: "high polyreactivity"
- MACROMOLECULE SEQUENCE: "QVQLVESGGGLVQAGGSLRLSCAASGSIFGYNTMGWYRQAPGKERDLVADISVSGDDTYYADSVKGRFTISRDNAKITVYLQMNSLKPEDTAVYYCNADEYYGYYHTYDYWGQGTQVTVSS"
  RESULT: "low polyreactivity"
- MACROMOLECULE SEQUENCE: "QVQLVESGGGLVQAGGSLRLSCAASGSIFYTYAMGWYRQAPGKERELVAAITYSGGSTYYADSVKGRFTISRDNAKNTVYLQMNSLKPEDTAVYYCAAYVIPGLGAEYGYWGQGTQVTVSS"
  RESULT: "low polyreactivity"

Switching to the query record.
*Q* Dear colleague, I am looking for the recorded polyreactivity (PSR sort gate) of the following sequence: "QVQLVESGGGLVQAGGSLRLSCAASGFIFQDNAMGWYRQAPGKERELVAAIRSTGSTNYADSVKGRFTISRDNAKNTVYLQMNSLKPEDTAVYYCNAGKYQSDTPSLVPTEYPAFYYWGQGTQVTVSS"
*A* low polyreactivity

---

TEST SUMMARY: yeast display, Sf9 membrane polyspecificity reagent, FACS + sequencing; frameworks hold sequencing errors
MEASURED QUANTITY: polyreactivity (PSR sort gate)

Consider the worked cases shown below.
- MACROMOLECULE SEQUENCE: "QVQLVESGGGLVQAGGSLRLICAASGRIFRGNAMGWYRQAPGKEMELVDTITIRGGSTYYADSVKGRFTISRDNAKNTVYLKMNSLIPEDTAVYYCNTRTYGYLTQKYDYWGQGTQVTVSS"
  polyreactivity (PSR sort gate): "high polyreactivity"
- MACROMOLECULE SEQUENCE: "QVHLVESGGGLVQAGGSLRLSCAASGTIFGINAMGWYRQAPGKERELVAGITSGGSTYYADSLKGRFTISRDNAKNTVDLQMNILKPEDTAVYYCAAVANQWYTEREYWGQGTQVTVSS"
  polyreactivity (PSR sort gate): "low polyreactivity"
- MACROMOLECULE SEQUENCE: "QVQLVESGGGLVQAGGSLRFSCAASGRTFYVYALGWYRQAPGKERELVARIRGRGGITFYADSVKGRFTISRDNAKNTVYLQMNSLKPEDTAVYYCAADFRSNYDYWGQGTQVTVAS"
  polyreactivity (PSR sort gate): "high polyreactivity"
- MACROMOLECULE SEQUENCE: "QVQLVESGGGLVQAGGSLRLSCAASGSIFVNNAMGWYRQAPGKERELVAAISSRGGSTYYADSVKGRFTISRDNAKNTVYLQMYSLKPEDTAVYYCAAEYDGPYYSFYPEQRYYWGQGTQVTVSS"
  polyreactivity (PSR sort gate): "low polyreactivity"
- MACROMOLECULE SEQUENCE: "QVQLVESGGGLVQAGGSLRLSCAAYGFIYRYYAMGWNRQAPGKERELVPGISVSGGGTYYADSVKGRFTISRDNAKNTVNLQMNSLKPEDTAVYYCAAERTFLYWAYDYWGQGTQVNVSS"
  polyreactivity (PSR sort gate): "high polyreactivity"
- MACROMOLECULE SEQUENCE: "QVQLVESGGGLVQAGGSLRLSCAASGSIFSYYAMGWSRQAPGKERELVAAISSGGSRTYYADSVKGRFTISRDNAKNTVYLQMNSLKPEDTAVYYCNAPAPARYYRGHDYWGQGTQVTVSS"
  polyreactivity (PSR sort gate): "high polyreactivity"
- MACROMOLECULE SEQUENCE: "QVQLVESGGGLVQAGGSLRLSCAASGSTFTSYAMGWYRQAPGKEREFVAAISWSGGSTYYADSVKGRFTISRDNAKNTVYLQMNSLKPEDTAVYYCNAVLRSYYSPWYDYWGQATQVTVSS"
  polyreactivity (PSR sort gate): "high polyreactivity"
- MACROMOLECULE SEQUENCE: "QVQLVESGGGLVQSGGSLRLSCAASGRIFSYYTIGWYRHEPGKEREIVAAITWSGGSTYYADSVKGRFTISRDNAKNTVFLQLNRLKPEDTAVYYCNRVAPHDLRNRQEDNYWGQGTQVTVSS"
  polyreactivity (PSR sort gate): "low polyreactivity"

*Q* Dear colleague, I am looking for the recorded polyreactivity (PSR sort gate) of the following sequence: "QVQLVESGGGLVQAGGSLRLSCAASGRILLYKAMGWYRQAPGKERELVAAISRSGGSTYYADSVKGRFTISRDNAKNTVYLQMNSLKPEDTAVYYCAAQHGYPRYYFWGQGTQVTVSS"
*A* high polyreactivity

*Q* Moving on to the next sequence: "QVQLVESGGGLVQAGGSLRLSCAASGLTFVQNAMGWYRQAPGKERELVAAISSRGGSTYYADSVKGRFTISRDNAKNTVYLQMNSLKPEETAVYYCNTRSITKYDYWRRGYGYWGQGTQVTVSS"
*A* high polyreactivity

*Q* Moving on to the next sequence: "QVQLVESGGGLVQAGGSLRLSCAATGYIFSHYAMGWYRQAPGKERELVAAITRSGGSTYYADSVKGRFTISRDNAKNTVYLQMNSLKPEVTAVYYCAASSLFYYWGQGTQVTVSS"
*A* high polyreactivity
